Exercise: for every item that follows, state its recorded Ratio.
Test: Ratio (FA) of Vmax/Km of AMP to that of compound
Returns: the value as a bare number; no unit string appended.

Sample `Nc1ncnc2c1ncn2[C@H]1CC[C@@H](CCP(=O)(O)O)C1` — what was its Ratio?
63

Sample `Nc1ncnc2c1ncn2[C@@H]1O[C@H](COP(=O)(O)O)[C@H](O)[C@@H]1O` — what was its Ratio?
13

Sample `Nc1ncnc2c1ncn2[C@@H]1C[C@H](CCP(=O)(O)O)C[C@@H]1O` — what was its Ratio?
11

Sample `Nc1ncnc2c1ncn2CCCCCP(=O)(O)O` — what was its Ratio?
32

Sample `Nc1ncnc2c1ncn2[C@H]1CC[C@@H](CCOP(=O)(O)O)C1` — what was its Ratio?
179
